Data origin: paper PMC5912465

Tested on: P672(1_44)-EVA1(29_94) hybrid evasin (Rhipicephalus pulchellus | …, UniProt L7MC74;P0C8E7, K92N)
Assay procedure: BLI
Assay readout: pKd
Please keep in mind that pKd is minus log10 of the molar concentration; only the number is needed.

[
  {
    "Binder": "CCL8 (human chemokine panel) (ligand) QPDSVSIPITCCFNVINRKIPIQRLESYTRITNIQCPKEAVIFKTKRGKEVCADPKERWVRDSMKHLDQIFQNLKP",
    "pKd": 6.67
  }
]

Given CCL18 (ligand) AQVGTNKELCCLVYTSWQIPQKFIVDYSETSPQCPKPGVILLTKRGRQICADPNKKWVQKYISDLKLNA , state its recorded pKd.
8.19
